Just for reference, ChEMBL document CHEMBL4699523 is where these values come from.

# test name: in vitro
# protocol conditions: human, cryopreserved hepatocytes
experimental endpoint: CLint scaled at 2 h, 1 µM (mL/min/kg)

// solved cases for CLint scaled at 2 h, 1 µM follow
| molecule | measure unit | CLint scaled at 2 h, 1 µM |
| --- | --- | --- |
| O=C(O)[C@@H]1CCC[C@H]1C(=O)c1ccc(-c2ccc(Nc3nc4ccc(F)cc4s3)c(F)c2)cc1 | mL/min/kg | 201 |
| O=C(O)c1cccc(Cc2cc(Cl)ccc2OCc2ccc(Cl)cc2F)n1 | mL/min/kg | 180 |
| Nc1[nH]ncc1-c1cc(Cl)ccc1Oc1cc(F)c(S(=O)(=O)Nc2cscn2)cc1Cl [PF-05089771] | mL/min/kg | 40 |
| CCCCc1nc(C)c(CC(=S)N(C)C)c(=O)n1Cc1ccc(-c2ccccc2-c2nnn[nH]2)cc1 | mL/min/kg | 17 |
| O=C(O)Cc1ccccc1Nc1c(Cl)cccc1Cl [DICLOFENAC] | mL/min/kg | 176 |

[I] CCOc1cc(CC(=O)N[C@@H](CC(C)C)c2ccccc2N2CCCCC2)ccc1C(=O)O [REPAGLINIDE]
[II] COCc1c(C(C)C)nc(C(C)C)c(/C=C/[C@@H](O)C[C@@H](O)CC(=O)O)c1-c1ccc(F)cc1 [CERIVASTATIN]
[III] CC(C)(C)NC(=O)[C@H]1CC[C@H]2[C@@H]3CC=C4C=C(C(=O)O)CC[C@]4(C)[C@H]3CC[C@]12C [EPRISTERIDE]
[IV] CCC[C@H](c1ccc(C(=O)NCCC(=O)O)cc1)[C@H](c1ccc(Cl)cc1)c1c[nH]c2c(F)cc(C)cc12 [MK-3577]
[V] CC(C)c1nc(N(C)S(C)(=O)=O)nc(-c2ccc(F)cc2)c1/C=C/[C@@H](O)C[C@@H](O)CC(=O)O [ROSUVASTATIN]
**Q:** Hey, quick one: sort these by CLint scaled at 2 h, 1 µM, low to high? Write the labels out in the order the request specifies.
**A:** V, III, II, I, IV

====

# test name: physchem
experimental endpoint: pKa at 0.3 h

| compound | pKa at 0.3 h |
| --- | --- |
| CCCCC1=NC2(CCCC2)C(=O)N1Cc1ccc(-c2ccccc2-c2nnn[nH]2)cc1 [IRBESARTAN] | 3.5 |
| COc1ccccc1Oc1c(NS(=O)(=O)c2ccc(C(C)(C)C)cc2)nc(-c2ncccn2)nc1OCCO [BOSENTAN] | 4.9 |
| CC(C)(C)NC(=O)[C@H]1CC[C@H]2[C@@H]3CC=C4C=C(C(=O)O)CC[C@]4(C)[C@H]3CC[C@]12C [EPRISTERIDE] | 4.6 |
| Cc1ccc(NC(=O)C2(c3ccc4c(c3)OC(F)(F)O4)CC2)nc1-c1cccc(C(=O)O)c1 [LUMACAFTOR] | 4.2 |

====

# test name: in vitro
# protocol conditions: cynomolgus monkey, plasma
# Description: Fraction unbound in cynomolgus monkey plasma
experimental endpoint: fraction unbound

Solved entries:
| molecule | experimental endpoint | quantitative result |
| --- | --- | --- |
| CC(C)(C)OC(=O)N[C@H]1CCCCC/C=C\[C@@H]2C[C@@]2(C(=O)NS(=O)(=O)C2CC2)NC(=O)[C@@H]2C[C@@H](OC(=O)N3Cc4cccc(F)c4C3)CN2C1=O [DANOPREVIR] | fraction unbound | 0.085 |
| CC(C)(C)NC(=O)[C@H]1CC[C@H]2[C@@H]3CC=C4C=C(C(=O)O)CC[C@]4(C)[C@H]3CC[C@]12C [EPRISTERIDE] | fraction unbound | 0.00917 |
| CCCc1nc2c(C)cc(-c3nc4ccccc4n3C)cc2n1Cc1ccc(-c2ccccc2C(=O)O)cc1 | fraction unbound | 0.0125 |
| CCCCCN(CCCOC)C(=O)[C@@H](CCC(=O)O)NC(=O)c1ccc(Cl)c(Cl)c1 [DEXLOXIGLUMIDE] | fraction unbound | 0.00771 |
| CCO[C@@H](Cc1ccc(OCCc2ccc(OS(C)(=O)=O)cc2)cc1)C(=O)O [TESAGLITAZAR] | fraction unbound | 0.00151 |

[I] Cc1cc(O[C@H](CCC(F)(F)F)c2ccc(C(=O)NCCC(=O)O)cc2)cc(C)c1-c1ccc(C(C)(C)C)cc1
[II] CCCCc1nc(C)c(CC(=S)N(C)C)c(=O)n1Cc1ccc(-c2ccccc2-c2nnn[nH]2)cc1
**Q:** Which of the two gives a bigger number for fraction unbound: I or II ? Field: selected label. Fill in the label of the entry you choose.
**A:** II
